Provenance of the data: patent US7364741B1

Parameter binding ratio to standard: see the listing below.
System: HLA-A24
Procedure details: Immunochemical peptide-MHC binding assay, purified HLA-A24, radiolabeled probe AYIDNYNKF
Set-up: species or system human
Condition notes: IC50 of standard divided by IC50 of tested peptide, cysteines synthesized as alanine
Write the value as a bare number.

// binding ratio to standard lookup, sequence = RFHNIRGRW [residues 131-139 of HPV16 protein E6] , result: 0.1000

Form: sequence = VYCKQQLLR [residues 38-46 of HPV16 protein E6] ; binding ratio to standard = 0.0011

Sure, the documented binding ratio to standard for PYAVCDKCL [residues 66-74 of HPV16 protein E6] is 0.0055
